This collection of values is drawn from ChEMBL document CHEMBL1124349.

# ASSAY_TARGET: GABA-A receptor; anion channel (Rattus norvegicus) (UniProt O09028+P15431+P18506+P18508+P19969+P20236+P23574+P23576+P28471+P28473+P30191+P62813+P63079+P63138+Q91ZM7+Q9ES14)
# ASSAY_PROTOCOL: Ratio of binding affinity to the GABA-A receptor in the presence and absence of GABA
# Type: protein-complex assay
Rule: GABA shift below 2 gives true. Equal to or above 2 gives false.

Please indicate whether the reported GABA shift of Cc1noc(-c2ncn3c2CN=C(c2ccccc2)c2ccccc2-3)n1 is strictly below 2.
true

Param item: CC(C)(C)OC(=O)c1ncn2c1C1CCCN1C(=O)c1c(Br)cccc1-2 (configuration not stated)
true

Same question for CCc1nc(-c2ncn3c2CN=C(c2ccccc2)c2ccccc2-3)no1 please.
false

Again, but for CC(C)c1nc(-c2ncn3c2CN=C(c2ccccc2)c2c(Cl)cccc2-3)no1
true

// repeat for Cc1noc(-c2ncn3c2CN(C)C(=O)c2ccccc2-3)n1 and report
true

CC(C)c1nc(-c2ncn3c2CN=C(c2ccccc2)c2ccccc2-3)no1 , same question.
false

Queued: CC(C)c1noc(-c2ncn3c2CN=C(c2ccccc2)c2ccccc2-3)n1
true

Would you mind doing CCCc1nc(-c2ncn3c2CN(C)C(=O)c2c(Cl)cccc2-3)no1 as well?
true

Record: CC(C)c1nc(-c2ncn3c2CN(C)C(=O)c2ccccc2-3)no1
false

Follow-up entry: Cc1nc(-c2ncn3c2CN(C)C(=O)c2ccccc2-3)no1
true

Would you kindly repeat that for CCc1noc(-c2ncn3c2CN=C(c2ccccc2)c2c(F)cccc2-3)n1 ?
false

Input CC(C)c1nc(-c2ncn3c2CN=C(c2ccccc2Cl)c2cc(Cl)ccc2-3)no1
false

Now consider CC(C)c1noc(-c2ncn3c2CN(C)C(=O)c2cc(F)ccc2-3)n1 and answer again.
true

Try this molecule too: CC(C)c1nc(-c2ncn3c2CN=C(c2ccccc2)c2c(F)cccc2-3)no1
false

Proceed to Cc1nc(-c2ncn3c2CN=C(c2ccccc2)c2c(Cl)cccc2-3)no1
true

Another molecule: Cc1noc(-c2ncn3c2CN=C(c2ccccc2Cl)c2cc(Cl)ccc2-3)n1
false

Again, but for CCCc1nc(-c2ncn3c2CN=C(c2ccccc2)c2c(F)cccc2-3)no1
false

Can you check Cc1noc(-c2ncn3c2CN=C(c2ccccc2)c2cc(Cl)ccc2-3)n1 next?
true

Also need Cc1nc(-c2ncn3c2CN=C(c2ccccc2)c2c(F)cccc2-3)no1 , thanks.
true

# repeat for CCc1noc(-c2ncn3c2CN(C)C(=O)c2cc(Cl)ccc2-3)n1
true

Another molecule: CCc1nc(-c2ncn3c2CN=C(c2ccccc2)c2c(Cl)cccc2-3)no1
true

---

# ASSAY_TARGET: GABA-A receptor; anion channel (Rattus norvegicus) (UniProt O09028+P15431+P18506+P18508+P19969+P20236+P23574+P23576+P28471+P28473+P30191+P62813+P63079+P63138+Q91ZM7+Q9ES14)
# ASSAY_PROTOCOL: Ratio of binding affinity to the GABA-A receptor in the presence and absence of GABA
# Type: protein-complex assay
Assign GABA shift to each entry below.
# output: bare number, no unit

Fill blank: measured GABA shift of the molecule CCCc1noc(-c2ncn3c2CN=C(c2ccccc2)c2cc(Cl)ccc2-3)n1 is ____.
2.57

Now consider CCCc1nc(-c2ncn3c2CN(C)C(=O)c2c(F)cccc2-3)no1 and answer again.
1.7

Field entry: CC(C)c1noc(-c2ncn3c2CN(C)C(=O)c2ccccc2-3)n1
2.19

Moving on to CCc1noc(-c2ncn3c2CN=C(c2ccccc2)c2cc(Cl)ccc2-3)n1
2

// query: CC(C)c1noc(-c2ncn3c2CN(C)C(=O)c2c(F)cccc2-3)n1
2.31

Now this one: CCc1noc(-c2ncn3c2CN(C)C(=O)c2cc(F)ccc2-3)n1
2.34

Same read-out for Cc1nc(-c2ncn3c2CN(C)C(=O)c2c(Cl)cccc2-3)no1 ?
1.18

Do the same for CCc1noc(-c2ncn3c2CN=C(c2ccccc2)c2ccccc2-3)n1 please
1.2

Same read-out for CC(C)c1noc(-c2ncn3c2CN=C(c2ccccc2)c2cc(Cl)ccc2-3)n1 ?
1.06

Can you check Cc1nc(-c2ncn3c2CN=C(c2ccccc2)c2cc(Cl)ccc2-3)no1 next?
1.17

How about CCc1noc(-c2ncn3c2CN(C)C(=O)c2c(F)cccc2-3)n1 ?
2.4

Now the same for CCCc1nc(-c2ncn3c2CN=C(c2ccccc2Cl)c2cc(Cl)ccc2-3)no1
1.81

Query CC(C)c1noc(-c2ncn3c2CN=C(c2ccccc2)c2c(F)cccc2-3)n1 next
2.03

Let us now turn to CCCc1nc(-c2ncn3c2CN=C(c2ccccc2)c2cc(Cl)ccc2-3)no1
2.22

Next record, please: CC(C)c1nc(-c2ncn3c2CN(C)C(=O)c2cc(F)ccc2-3)no1
2.76

Param item: Cc1nc(-c2ncn3c2CN(C)C(=O)c2cc(F)ccc2-3)no1
1.53

# repeat for CC(C)c1nc(-c2ncn3c2CN(C)C(=O)c2c(Cl)cccc2-3)no1
2.37

Subsequent entry: CC(C)c1nc(-c2ncn3c2CN=C(c2ccccc2)c2cc(Cl)ccc2-3)no1
2.89

Proceed to CCc1nc(-c2ncn3c2CN=C(c2ccccc2Cl)c2ccccc2-3)no1
1.48

Do the same for Cc1noc(-c2ncn3c2CN=C(c2ccccc2Cl)c2ccccc2-3)n1 please
1.29

Record: CC(C)c1noc(-c2ncn3c2CN=C(c2ccccc2Cl)c2cc(Cl)ccc2-3)n1
1.81

---

# ASSAY_TARGET: GABA-A receptor; anion channel (Rattus norvegicus) (UniProt O09028+P15431+P18506+P18508+P19969+P20236+P23574+P23576+P28471+P28473+P30191+P62813+P63079+P63138+Q91ZM7+Q9ES14)
# ASSAY_PROTOCOL: Ratio of binding affinity to the GABA-A receptor in the presence and absence of GABA
# Format: protein-complex assay
Task for the reader: assign each of the following compounds its reported GABA shift.
Reply with the value as a number alone.

Reported GABA shift, compound CCc1nc(-c2ncn3c2CN(C)C(=O)c2c(Cl)cccc2-3)no1 : ____
1.12

Queued: CCc1noc(-c2ncn3c2CN=C(c2ccccc2Cl)c2cc(Cl)ccc2-3)n1
2.11

Next compound up: CCCc1nc(-c2ncn3c2CN(C)C(=O)c2ccccc2-3)no1
2

Would you kindly repeat that for Cc1noc(-c2ncn3c2CN(C)C(=O)c2c(F)cccc2-3)n1 ?
1.85

Also check CCCc1nc(-c2ncn3c2CN=C(c2ccccc2)c2c(Cl)cccc2-3)no1
1.7
